- Target or test system: P-gp (Homo sapiens, UniProt P08183)
- Construct: expressed in transfected cells; host or cells: MDR1-MDCK (MDCK cells expressing MDR1)
- Sequence (P08183 whole entry): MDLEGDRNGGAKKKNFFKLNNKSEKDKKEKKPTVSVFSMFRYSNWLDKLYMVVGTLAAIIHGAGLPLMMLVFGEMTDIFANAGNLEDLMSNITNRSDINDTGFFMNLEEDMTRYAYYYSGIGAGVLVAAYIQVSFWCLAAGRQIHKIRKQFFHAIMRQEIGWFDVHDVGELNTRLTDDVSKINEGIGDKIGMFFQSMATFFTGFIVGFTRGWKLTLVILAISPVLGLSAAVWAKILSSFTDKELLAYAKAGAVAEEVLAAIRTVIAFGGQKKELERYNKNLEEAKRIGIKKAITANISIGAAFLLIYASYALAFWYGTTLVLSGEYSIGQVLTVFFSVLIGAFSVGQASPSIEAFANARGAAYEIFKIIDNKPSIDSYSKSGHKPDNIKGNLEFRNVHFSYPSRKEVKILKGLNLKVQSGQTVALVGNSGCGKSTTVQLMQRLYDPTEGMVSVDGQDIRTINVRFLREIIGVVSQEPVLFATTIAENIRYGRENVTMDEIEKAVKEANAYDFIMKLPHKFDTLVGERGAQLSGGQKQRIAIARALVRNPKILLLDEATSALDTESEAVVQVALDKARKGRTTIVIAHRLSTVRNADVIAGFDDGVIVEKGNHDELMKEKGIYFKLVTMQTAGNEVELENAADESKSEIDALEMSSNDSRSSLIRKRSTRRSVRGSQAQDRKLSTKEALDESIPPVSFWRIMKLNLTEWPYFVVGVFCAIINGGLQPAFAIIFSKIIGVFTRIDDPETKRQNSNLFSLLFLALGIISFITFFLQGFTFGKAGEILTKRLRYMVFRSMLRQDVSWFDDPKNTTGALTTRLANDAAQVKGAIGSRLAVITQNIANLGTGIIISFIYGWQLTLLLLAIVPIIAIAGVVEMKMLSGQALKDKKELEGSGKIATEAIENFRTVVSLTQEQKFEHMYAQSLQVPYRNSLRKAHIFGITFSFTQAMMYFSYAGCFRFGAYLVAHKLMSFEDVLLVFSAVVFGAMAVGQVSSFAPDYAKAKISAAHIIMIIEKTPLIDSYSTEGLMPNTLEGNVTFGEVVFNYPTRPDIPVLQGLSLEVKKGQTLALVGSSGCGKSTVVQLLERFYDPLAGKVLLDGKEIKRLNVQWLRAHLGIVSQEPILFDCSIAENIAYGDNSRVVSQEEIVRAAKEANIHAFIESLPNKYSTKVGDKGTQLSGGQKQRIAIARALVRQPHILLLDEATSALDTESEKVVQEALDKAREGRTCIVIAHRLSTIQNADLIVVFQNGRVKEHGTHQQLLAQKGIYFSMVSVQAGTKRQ
- Protocol notes: P-gp substrate potential using MDR1-MDCK monolayers (bidirectional permeability +/- valspodar)
- Type: in vitro ADME
- Experimental context: dog, MDCK-MDR1, pH 7.4, MDR1-MDCK, 5 μM, A-to-B, without valspodar, replicate R2; read-out: Papp R2
Property measured: Papp A→B at 120 min, 5 μM
Give the figure together with its unit, number first.

### Prompt Report Papp A→B at 120 min, 5 μM for CCN1CCN(Cc2ccc(Nc3ncc(F)c(-c4ccc5nn(C)c(C(C)C)c5c4)n3)nc2)CC1 [Compound 1] tested on P-gp (Homo sapiens, UniProt P08183).
### Response 5.43 ×10⁻⁶ cm/s
